Item-by-item account of viability, T/C
- Tested on: 188146-221-R-J1-PDC complex spheroid viability
- measurementDescription: Anticancer human tumor 188146-221-R-J1-PDC patient-derived colon adenocarcinoma cell line growth inhibition [POLQ]
- measurementContext: second compound 0.0316 µM; first compound 0.316 µM; active compounds read low
Field format: number, assumed %, no unit text.

The examples below pair each entry with its known result.
- molecule: "CC1COCCN1c1cc(-c2ccnn2C)c2ccnc(-c3ccn[nH]3)c2n1 (stereo not drawn) + COC1C(OC(N)=O)C(O)C(Oc2ccc3c(O)c(NC(=O)c4ccc(O)c(CC=C(C)C)c4)c(=O)oc3c2C)OC1(C)C"
  systemUnderTest: "188146-221-R-J1-PDC complex spheroid viability"
  uom: "%"
  viability, T/C: 39.3
- molecule: "C#Cc1c(F)ccc2cc(O)cc(-c3ncc4c(N5CC6CCC(C5)N6)nc(OCC56CCCN5CC(F)C6)nc4c3F)c12 (stereo not drawn) + Cc1cccc(N(C)C(=O)C2C(O)CCN2c2nc(C)cc(C(F)(F)F)c2C#N)c1"
  systemUnderTest: "188146-221-R-J1-PDC complex spheroid viability"
  uom: "%"
  viability, T/C: 104

Request: Give me measured viability, T/C, please, for this molecule: Nc1ccn(C2OC(CO)C(O)C2(F)F)c(=O)n1 (stereo not drawn) + Nc1ccc(C#CCN(C(=O)Cc2ncc(C(F)(F)F)cc2C(F)(F)F)c2ccc(F)cc2)nn1
Response: 17.3

----------
- Test system: 188146-221-R-J1-PDC complex spheroid viability
- measurementDescription: Anticancer human tumor 188146-221-R-J1-PDC cell line growth inhibition [POLQ];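 also: spheroids exposed to compounds for seven days; 100% = DMSO vehicle control viability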
- measurementContext: second compound 0.316 µM; first compound 0.000316 µM; active compounds read low
testReadout: viability, T/C (%)
Field format: number, assumed %, no unit text.

The examples below pair each entry with its known result.
- molecule: "Cn1ncnc1[C@H]1c2n[nH]c(=O)c3cc(F)cc(c23)N[C@@H]1c1ccc(F)cc1 + Cc1cccc(N(C)C(=O)C2C(O)CCN2c2nc(C)cc(C(F)(F)F)c2C#N)c1"
  experimentalValue: 101
- molecule: "Cn1ncnc1[C@H]1c2n[nH]c(=O)c3cc(F)cc(c23)N[C@@H]1c1ccc(F)cc1 + COC1C(OC(N)=O)C(O)C(Oc2ccc3c(O)c(NC(=O)c4ccc(O)c(CC=C(C)C)c4)c(=O)oc3c2C)OC1(C)C"
  experimentalValue: 114
- molecule: "CC[C@@]1(O)C(=O)OCc2c1cc1n(c2=O)Cc2cc3c(CN(C)C)c(O)ccc3nc2-1 + Nc1ccc(C#CCN(C(=O)Cc2ncc(C(F)(F)F)cc2C(F)(F)F)c2ccc(F)cc2)nn1"
  experimentalValue: 104
- molecule: "CC[C@@]1(O)C(=O)OCc2c1cc1n(c2=O)Cc2cc3c(CN(C)C)c(O)ccc3nc2-1 + Cc1cccc(N(C)C(=O)C2C(O)CCN2c2nc(C)cc(C(F)(F)F)c2C#N)c1"
  experimentalValue: 109
- molecule: "CC[C@@]1(O)C(=O)OCc2c1cc1n(c2=O)Cc2cc3c(CN(C)C)c(O)ccc3nc2-1 + COC1C(OC(N)=O)C(O)C(Oc2ccc3c(O)c(NC(=O)c4ccc(O)c(CC=C(C)C)c4)c(=O)oc3c2C)OC1(C)C"
  experimentalValue: 106

Next, consider the following molecule.
Request: Give me measured viability, T/C, please, for this molecule: Cn1ncnc1[C@H]1c2n[nH]c(=O)c3cc(F)cc(c23)N[C@@H]1c1ccc(F)cc1 + Nc1ccc(C#CCN(C(=O)Cc2ncc(C(F)(F)F)cc2C(F)(F)F)c2ccc(F)cc2)nn1
Response: 102

----------
- Tested on: 188146-221-R-J1-PDC complex spheroid viability
- measurementDescription: Anticancer human tumor 188146-221-R-J1-PDC cell line growth inhibition [POLQ];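 also: spheroids exposed to compounds for seven days; 100% = DMSO vehicle control viability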
- measurementContext: second compound 0.1 µM; first compound 0.0316 µM; active compounds read low
- Protocol: Multicellular complex tumor spheroid response to Polymerase (POL) inhibitors (novobiocin, ART-558, RP6685) in combination with a variety of drugs and investigational agents in selected tumor cell lines The POL inhibitors (novobiocin, ART-558, and RP6685) were evaluated both individually and in combination with standard of care and investigational anticancer small molecules within a complex spheroid model of solid tumors. . […]
testReadout: viability, T/C

The examples below pair each entry with its known result.
- molecule: "CCc1c2c(nc3ccc(O)cc13)-c1cc3c(c(=O)n1C2)COC(=O)[C@]3(O)CC + Cc1cccc(N(C)C(=O)C2C(O)CCN2c2nc(C)cc(C(F)(F)F)c2C#N)c1"
  testReadout: "viability, T/C"
  experimentalValue: "39.9%"
- molecule: "CC(C)n1c(=O)n(C)c2cnc3cc(F)c(-c4ccc(OCCCN5CCCCC5)nc4)cc3c21 + Cc1cccc(N(C)C(=O)C2C(O)CCN2c2nc(C)cc(C(F)(F)F)c2C#N)c1"
  testReadout: "viability, T/C"
  experimentalValue: "109%"
- molecule: "Cn1ncnc1[C@H]1c2n[nH]c(=O)c3cc(F)cc(c23)N[C@@H]1c1ccc(F)cc1 + Cc1cccc(N(C)C(=O)C2C(O)CCN2c2nc(C)cc(C(F)(F)F)c2C#N)c1"
  testReadout: "viability, T/C"
  experimentalValue: "89.9%"

Request: Give me measured viability, T/C, please, for this molecule: C=CC(=O)N1CCN(c2nc(=O)n(-c3c(C)ccnc3C(C)C)c3nc(-c4c(O)cccc4F)c(F)cc23)C(C)C1 (stereo not given) + Nc1ccc(C#CCN(C(=O)Cc2ncc(C(F)(F)F)cc2C(F)(F)F)c2ccc(F)cc2)nn1
Response: 95.7%

Request: Give me measured viability, T/C, please, for this molecule: CCc1c2c(nc3ccc(O)cc13)-c1cc3c(c(=O)n1C2)COC(=O)[C@]3(O)CC + COC1C(OC(N)=O)C(O)C(Oc2ccc3c(O)c(NC(=O)c4ccc(O)c(CC=C(C)C)c4)c(=O)oc3c2C)OC1(C)C
Response: 42.5%

----------
Item-by-item account of viability, T/C
- Tested on: 188146-221-R-J1-PDC complex spheroid viability
- measurementDescription: Anticancer human tumor 188146-221-R-J1-PDC cell line growth inhibition [POLQ];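 also: spheroids exposed to compounds for seven days; 100% = DMSO vehicle control viability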
- measurementContext: second compound 0.1 µM; first compound 0.1 µM; active compounds read low
Field format: number, assumed %, no unit text.

Request: Give me measured viability, T/C, please, for this compound: CCc1c2c(nc3ccc(O)cc13)-c1cc3c(c(=O)n1C2)COC(=O)[C@]3(O)CC + COC1C(OC(N)=O)C(O)C(Oc2ccc3c(O)c(NC(=O)c4ccc(O)c(CC=C(C)C)c4)c(=O)oc3c2C)OC1(C)C
Response: 16.8

Request: Give me measured viability, T/C, please, for this compound: COc1cccc(OCCCN)c1-c1cc(Nc2cnc(C#N)cn2)n[nH]1 + Nc1ccc(C#CCN(C(=O)Cc2ncc(C(F)(F)F)cc2C(F)(F)F)c2ccc(F)cc2)nn1
Response: 34.3

Request: Give me measured viability, T/C, please, for this compound: CNCc1ccc(-c2[nH]c3cc(F)cc4c3c2CCNC4=O)cc1 + Nc1ccc(C#CCN(C(=O)Cc2ncc(C(F)(F)F)cc2C(F)(F)F)c2ccc(F)cc2)nn1
Response: 104

----------
- Tested on: 188146-221-R-J1-PDC complex spheroid viability
- measurementDescription: Anticancer human tumor 188146-221-R-J1-PDC cell line growth inhibition [POLQ];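 also: spheroids exposed to compounds for seven days; 100% = DMSO vehicle control viability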
- measurementContext: second compound 0.0316 µM; first compound 0.0316 µM; active compounds read low
Item-by-item account of viability, T/C
Field format: number, assumed %, no unit text.

- molecule: "Nc1ccn(C2OC(CO)C(O)C2(F)F)c(=O)n1 (centres undefined) + Cc1cccc(N(C)C(=O)C2C(O)CCN2c2nc(C)cc(C(F)(F)F)c2C#N)c1"
  systemUnderTest: "188146-221-R-J1-PDC complex spheroid viability"
  experimentalValue: 35.5
- molecule: "CC1COCCN1c1cc(C2(S(C)(=N)=O)CC2)nc(-c2ccnc3[nH]ccc23)n1 (centres undefined) + COC1C(OC(N)=O)C(O)C(Oc2ccc3c(O)c(NC(=O)c4ccc(O)c(CC=C(C)C)c4)c(=O)oc3c2C)OC1(C)C"
  systemUnderTest: "188146-221-R-J1-PDC complex spheroid viability"
  experimentalValue: 102
- molecule: "COc1cccc2c1C(=O)c1c(O)c3c(c(O)c1C2=O)CC(O)(C(=O)CO)CC3OC1CC(N)C(O)C(C)O1 (centres undefined) + Cc1cccc(N(C)C(=O)C2C(O)CCN2c2nc(C)cc(C(F)(F)F)c2C#N)c1"
  systemUnderTest: "188146-221-R-J1-PDC complex spheroid viability"
  experimentalValue: 83.8
- molecule: "CC1COCCN1c1cc(C2(S(C)(=N)=O)CC2)nc(-c2ccnc3[nH]ccc23)n1 (centres undefined) + Nc1ccc(C#CCN(C(=O)Cc2ncc(C(F)(F)F)cc2C(F)(F)F)c2ccc(F)cc2)nn1"
  systemUnderTest: "188146-221-R-J1-PDC complex spheroid viability"
  experimentalValue: 105
- molecule: "COc1cc(C2c3cc4c(cc3C(OC3OC5COC(C)OC5C(O)C3O)C3COC(=O)C23)OCO4)cc(OC)c1O (centres undefined) + COC1C(OC(N)=O)C(O)C(Oc2ccc3c(O)c(NC(=O)c4ccc(O)c(CC=C(C)C)c4)c(=O)oc3c2C)OC1(C)C"
  systemUnderTest: "188146-221-R-J1-PDC complex spheroid viability"
  experimentalValue: 116

Request: Specify viability, T/C for CCc1cc2c(N3CCc4c(cc(Cn5ccnc5)cc4-c4cn(C)nc4C(F)(F)F)C3=O)ccnc2c(OC)n1 + COC1C(OC(N)=O)C(O)C(Oc2ccc3c(O)c(NC(=O)c4ccc(O)c(CC=C(C)C)c4)c(=O)oc3c2C)OC1(C)C , system 188146-221-R-J1-PDC complex spheroid viability.
Response: 107

Request: Specify viability, T/C for COc1cccc(OCCCN)c1-c1cc(Nc2cnc(C#N)cn2)n[nH]1 + Cc1cccc(N(C)C(=O)C2C(O)CCN2c2nc(C)cc(C(F)(F)F)c2C#N)c1 , system 188146-221-R-J1-PDC complex spheroid viability.
Response: 61.5

Request: Specify viability, T/C for COc1cc2cc(C(=O)CCC(=O)O)sc2cc1OC + Nc1ccc(C#CCN(C(=O)Cc2ncc(C(F)(F)F)cc2C(F)(F)F)c2ccc(F)cc2)nn1 , system 188146-221-R-J1-PDC complex spheroid viability.
Response: 115

Request: Specify viability, T/C for CCc1cc2c(N3CCc4c(cc(Cn5ccnc5)cc4-c4cn(C)nc4C(F)(F)F)C3=O)cc(C)nc2c(OC)n1 + Cc1cccc(N(C)C(=O)C2C(O)CCN2c2nc(C)cc(C(F)(F)F)c2C#N)c1 , system 188146-221-R-J1-PDC complex spheroid viability.
Response: 105

Request: Specify viability, T/C for CCc1c2c(nc3ccc(O)cc13)-c1cc3c(c(=O)n1C2)COC(=O)[C@]3(O)CC + COC1C(OC(N)=O)C(O)C(Oc2ccc3c(O)c(NC(=O)c4ccc(O)c(CC=C(C)C)c4)c(=O)oc3c2C)OC1(C)C , system 188146-221-R-J1-PDC complex spheroid viability.
Response: 41
